# experimental system: T1, DL3W35, extracellular domain of human DLL3 linked to a C-terminal 6xHis-Tag and a linker (human, UniProt Q9NYJ7 27-479)
# T1 construct: also called human DLL3 ECD; huDLL3
# T1 sequence: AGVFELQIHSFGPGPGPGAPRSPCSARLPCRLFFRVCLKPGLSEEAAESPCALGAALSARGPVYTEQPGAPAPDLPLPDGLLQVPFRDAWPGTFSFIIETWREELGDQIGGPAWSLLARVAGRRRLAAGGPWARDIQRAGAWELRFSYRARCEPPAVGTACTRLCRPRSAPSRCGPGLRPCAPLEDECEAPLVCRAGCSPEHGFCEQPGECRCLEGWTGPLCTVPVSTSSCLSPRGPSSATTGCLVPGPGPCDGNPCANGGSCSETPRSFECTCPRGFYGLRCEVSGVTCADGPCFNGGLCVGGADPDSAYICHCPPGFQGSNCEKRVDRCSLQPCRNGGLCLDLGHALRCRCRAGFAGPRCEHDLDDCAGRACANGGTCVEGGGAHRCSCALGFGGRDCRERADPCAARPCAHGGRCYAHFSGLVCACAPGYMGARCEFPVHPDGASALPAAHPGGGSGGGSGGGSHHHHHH
# assay overview: SPR (ProteOn), antibody captured by anti-Fc, DLL3 (DL3W35) titrated
Documented pKd across a set of binders
# pKd is unitless: minus log10 of the molar concentration; print number only

- binder: "DL3B569 (Fc fusion, The conflict is not resolved; also called DL3B279 scFv-Fc; not shown: wild-type IgG1 Fc domain) scFv: DIQMTQSPSSLSASVGDRVTITCRASQGISNYLAWFQQKPGKAPKSLIYAASSLQSGVPSKFSGSGSGTDFTLTISSLQPEDFATYYCQQYNSYPYTFAQGTKLEIKGGSEGKSSGSGSESKSTGGSQVQLVQSGAEVKKPGASVKVSCKASGNTFTNYYIHWVRQAPGQGLEWMGIINPSGGSTSYAQKLQGRMTMTRDTSTSTVYMELSSLRSEDTAVYFCARQGPFIGDAFDIWGQGTMVTVSS"
  pKd: 9.83

Turning to the following binder.
Please indicate pKd recorded for DL3B575 (Fc fusion, also called DL3B461 scFv-Fc; not shown: wild-type IgG1 Fc domain) scFv: DIVMTQSPLSSPVTLGQPASISCRSSQSLVHSDGNTYLNWLQQRPGQPPRLLIYQISNPFSGVPDRFSGSGAGTDFTLKISRVEAEDVGVYYCMQATQFPHTFGPGTKVEIKGGSEGKSSGSGSESKSTGGSQVQLVQSGAEVKKPGSSVKVSCKASGGTLSSYVISWVRQAPGQGLEWMGGIIPIFGTANYAQKFQDRVTITADKSTNTAYMELTSLTSEDTAVYYCARDPFSDLWGRGTMVTVSS 9.51
